# Tested on: NaOH (2) 0.2 N
# assay text: Cytoprotective activity in the rat, NaOH 0.2 N
# Assay type: in vivo
# condition label: read-out: Cytoprotective activity DE50, NaOH (2) 0.2 N
Give ED50 for every item shown.
Field format: number, assumed mg/kg, no unit text.

Please give the measured ED50 for this molecule: CCCCCCC1CCC2(NC(=O)NC2=O)C1CCCCCCC(=O)O (stereo not shown) [IBI-P-01028]
18

Please give the measured ED50 for this molecule: CCCCCCC1CCCC(N)C1CCCCCCC(=O)O (stereo not shown) [IBI-P-05006]
9

Please give the measured ED50 for this molecule: CCCCCCC1CCC(N)C1CCCCCCC(OCC)OCC (stereo not shown) [IBI-P-01053]
6

Please give the measured ED50 for this molecule: CCCCCC1C(N)CCC1CCCCCCCCO (stereo not shown) [IBI-P-10007]
4

###

# assay text: Oral LD50 in the rat
# condition label: in vivo
reported endpoint: LD50 (mg/kg)
Field format: number, assumed mg/kg, no unit text.

Please give the measured LD50 for this compound: CCCCCC1C(N)CCC1CCCCCCCCO (stereo not shown) [IBI-P-10007]
3000

Please give the measured LD50 for this compound: CCCCCCC1CCC2(NC(=O)NC2=O)C1CCCCCCC(=O)O (stereo not shown) [IBI-P-01028]
2000

Please give the measured LD50 for this compound: CCCCCCC1CCCC(N)C1CCCCCCC(=O)O (stereo not shown) [IBI-P-05006]
3000

Please give the measured LD50 for this compound: CCCCCCC1CCC(N)C1CCCCCCC(OCC)OCC (stereo not shown) [IBI-P-01053]
3000
